target: CDK4/cyclin D3 (Homo sapiens); construct: made in house; host or cells: insect cells (baculovirus co-infection); test: Inhibition of CDK4/Cyclin D retinoblastoma kinase activity; assay type: biochemical; settings: test compound at 0.03 (unit cell empty, head line shifted; μM)
Sequence (P11802 whole entry): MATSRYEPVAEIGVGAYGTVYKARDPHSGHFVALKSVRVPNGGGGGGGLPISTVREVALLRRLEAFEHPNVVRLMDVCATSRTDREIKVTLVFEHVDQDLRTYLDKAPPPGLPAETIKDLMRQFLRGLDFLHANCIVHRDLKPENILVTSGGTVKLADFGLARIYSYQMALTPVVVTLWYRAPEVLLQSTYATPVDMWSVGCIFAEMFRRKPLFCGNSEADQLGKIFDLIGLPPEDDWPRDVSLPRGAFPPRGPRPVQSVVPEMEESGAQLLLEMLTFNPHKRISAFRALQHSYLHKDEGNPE
Sequence (P30281 1-264 partner limits assumed): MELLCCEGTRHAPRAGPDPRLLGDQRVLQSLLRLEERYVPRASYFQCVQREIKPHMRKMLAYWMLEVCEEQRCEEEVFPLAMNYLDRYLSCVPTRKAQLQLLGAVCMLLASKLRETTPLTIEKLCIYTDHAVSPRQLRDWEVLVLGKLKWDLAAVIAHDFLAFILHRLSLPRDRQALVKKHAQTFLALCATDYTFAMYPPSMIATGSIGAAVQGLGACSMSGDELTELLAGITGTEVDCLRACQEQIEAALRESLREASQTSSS
Endpoint Name: % Inhib CDK4/D @ 0.03 (%)

Below: 5 compounds and their reported % Inhib CDK4/D @ 0.03.
1. COCCS(=O)(=O)c1ccc(Nc2nc(N)c(C(=O)c3c(Cl)cccc3Cl)s2)cc1 [DD(174)]	−16
2. Nc1nc(Nc2ccc([S+]([O-])CCO)cc2)sc1C(=O)c1c(Cl)cccc1Cl (stereo not shown) [DD(109)]	25
3. Nc1nc(Nc2ccc(S(=O)(=O)CC3CCCO3)cc2)sc1C(=O)c1c(Cl)cccc1Cl (stereo not shown) [DD(218)]	−12
4. Nc1nc(Nc2ccc(S(=O)(=O)CCN3CCCC3)cc2)sc1C(=O)c1c(Cl)cccc1Cl [DD(207)]	−9.9
5. Nc1nc(Nc2ccc(S(=O)(=O)CCO)cc2)sc1C(=O)c1c(Cl)cccc1Cl [DD(189)]	−19

[I] Nc1nc(Nc2ccc(S(=O)(=O)CC(=O)Nc3ccccc3)cc2)sc1C(=O)c1c(Cl)cccc1Cl [DD(175)]
[II] CCCS(=O)(=O)c1ccc(Nc2nc(N)c(C(=O)c3c(Cl)cccc3Cl)s2)cc1 [DD(185)]
Prompt line: Which of the two gives a bigger number for % Inhib CDK4/D @ 0.03: I or II ? // return label of chosen record
Response line: II

[I] CC(C)=CCS(=O)(=O)c1ccc(Nc2nc(N)c(C(=O)c3c(Cl)cccc3Cl)s2)cc1 [DD(184)]
[II] CC(C)=CCS(=O)(=O)c1ccc(Nc2nc(N)c(C(=O)c3c(Cl)cccc3Cl)s2)cc1 [DD(224)]
Prompt line: Which of the two gives a bigger number for % Inhib CDK4/D @ 0.03: I or II ? // return label of chosen record
Response line: I

Values were extracted from patent US20040176431A1.
